Target Or Test System: mouse Nat2 (Mus musculus, UniProt P50295)
Construct: The mouse Nat2 open-reading frame [22] was sub-cloned into pET28b(+); hexa-histidine tag (His-tag, from pET28b(+)) (N, cleaved yes); made in house; host or cells: Escherichia coli Rosetta(DE3)pLysS
Sequence (P50295 whole entry): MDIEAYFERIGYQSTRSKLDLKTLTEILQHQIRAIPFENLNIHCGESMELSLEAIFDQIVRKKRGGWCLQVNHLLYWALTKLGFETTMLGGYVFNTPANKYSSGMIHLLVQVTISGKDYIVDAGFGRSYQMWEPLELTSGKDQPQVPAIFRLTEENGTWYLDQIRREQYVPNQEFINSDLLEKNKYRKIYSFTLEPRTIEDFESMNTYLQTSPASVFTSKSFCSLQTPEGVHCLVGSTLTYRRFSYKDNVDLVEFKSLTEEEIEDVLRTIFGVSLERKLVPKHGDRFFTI
Experiment: Substrate specific activity of mouse Nat2 (rate of CoA production, DTNB)
Assay type: biochemical
Condition Summary: substrate 500 μM, AcCoA 400 μM, 25 °C, pH 8.0
Endpoint Label: Specific activity of mouse Nat2 with substrate

CCN(CC)CCNC(=O)c1ccc(N)cc1 [procainamide]	low specific activities
Nc1ccc(C(=O)O)cc1	high specific activities
Nc1ccc2c(c1)Cc1ccccc1-2	high specific activities
Nc1ccc(C(=O)O)c(O)c1	high specific activities
Nc1ccc(O)c(C(=O)O)c1	high specific activities

Provide Specific activity of mouse Nat2 with substrate for all items below, preserving their order.
1. Cc1cc(C)nc(NS(=O)(=O)c2ccc(N)cc2)n1
2. NNc1nncc2ccccc12 [HDZ, hydralazine]
3. NNC(=O)c1ccncc1
4. NNc1ccccc1 [PHZ, phenylhydrazine]

OUTPUT:
1. low specific activities
2. low specific activities
3. low specific activities
4. low specific activities
